# method-description: activity coefficient (dimensionless); of the first substance listed, at infinite dilution; xn = mol fraction of the nth substance listed
# particulars: 323.15 K; 101.33 kPa; Liquid; Chromatography; x1 = 0
metric: activity coefficient

Here's what some known entries look like.
>  <compound>
C1CCCCCCC1 [cyclooctane] + CC(CC(C)(C)C)CP(=O)([O-])CC(C)CC(C)(C)C.CCCCCCCCCCCCCC[P+](CCCCCC)(CCCCCC)CCCCCC

>  <activity coefficient>
0.71

$$$$
>  <compound>
C=CCCCCC [1-heptene] + CC(CC(C)(C)C)CP(=O)([O-])CC(C)CC(C)(C)C.CCCCCCCCCCCCCC[P+](CCCCCC)(CCCCCC)CCCCCC

>  <activity coefficient>
0.81

$$$$
>  <compound>
CC(C)CC(C)(C)C [2,2,4-trimethylpentane] + CC(CC(C)(C)C)CP(=O)([O-])CC(C)CC(C)(C)C.CCCCCCCCCCCCCC[P+](CCCCCC)(CCCCCC)CCCCCC

>  <activity coefficient>
0.96

$$$$
>  <compound>
CCC(C)=O [butanone] + CC(CC(C)(C)C)CP(=O)([O-])CC(C)CC(C)(C)C.CCCCCCCCCCCCCC[P+](CCCCCC)(CCCCCC)CCCCCC

>  <activity coefficient>
0.67

$$$$

P = CC1CCCCC1 [methylcyclohexane] + CC(CC(C)(C)C)CP(=O)([O-])CC(C)CC(C)(C)C.CCCCCCCCCCCCCC[P+](CCCCCC)(CCCCCC)CCCCCC
Q = C=CCCCCCCCC [1-decene] + CC(CC(C)(C)C)CP(=O)([O-])CC(C)CC(C)(C)C.CCCCCCCCCCCCCC[P+](CCCCCC)(CCCCCC)CCCCCC
input: # query: argmin of activity coefficient over P and Q // respond with label for picked entry
output: P
(P: 0.68, Q: 1.04)

* * *

# method-description: activity coefficient (dimensionless); of the first substance listed, at infinite dilution; xn = mol fraction of the nth substance listed
# particulars: 333.15 K; 101.33 kPa; Liquid; Chromatography; x1 = 0
metric: activity coefficient

>  <compound>
CCC(C)(C)C [2,2-dimethylbutane] + CC(CC(C)(C)C)CP(=O)([O-])CC(C)CC(C)(C)C.CCCCCCCCCCCCCC[P+](CCCCCC)(CCCCCC)CCCCCC

>  <activity coefficient>
0.9

$$$$
>  <compound>
CCC(C)=O [butanone] + CC(CC(C)(C)C)CP(=O)([O-])CC(C)CC(C)(C)C.CCCCCCCCCCCCCC[P+](CCCCCC)(CCCCCC)CCCCCC

>  <activity coefficient>
0.72

$$$$
>  <compound>
C=CCCCCCCCC [1-decene] + CC(CC(C)(C)C)CP(=O)([O-])CC(C)CC(C)(C)C.CCCCCCCCCCCCCC[P+](CCCCCC)(CCCCCC)CCCCCC

>  <activity coefficient>
1.15

$$$$
>  <compound>
CCCCCCCCC [nonane] + CC(CC(C)(C)C)CP(=O)([O-])CC(C)CC(C)(C)C.CCCCCCCCCCCCCC[P+](CCCCCC)(CCCCCC)CCCCCC

>  <activity coefficient>
1.23

$$$$
>  <compound>
C1CCOC1 [tetrahydrofuran] + CC(CC(C)(C)C)CP(=O)([O-])CC(C)CC(C)(C)C.CCCCCCCCCCCCCC[P+](CCCCCC)(CCCCCC)CCCCCC

>  <activity coefficient>
0.49

$$$$

I = CC(C)CC(C)(C)C [2,2,4-trimethylpentane] + CC(CC(C)(C)C)CP(=O)([O-])CC(C)CC(C)(C)C.CCCCCCCCCCCCCC[P+](CCCCCC)(CCCCCC)CCCCCC
II = c1ccccc1 [benzene] + CC(CC(C)(C)C)CP(=O)([O-])CC(C)CC(C)(C)C.CCCCCCCCCCCCCC[P+](CCCCCC)(CCCCCC)CCCCCC
III = CCCO [propan-1-ol] + CC(CC(C)(C)C)CP(=O)([O-])CC(C)CC(C)(C)C.CCCCCCCCCCCCCC[P+](CCCCCC)(CCCCCC)CCCCCC
input: Sort by activity coefficient, descending. Please reply with the labels ordered as requested. Many thanks.
output: I, II, III
